Data credit: patent US4329341A

Kindly supply the reported Hexobarbital-sleeping time, 24-hour pretreatment, average ± SE values for the records listed here.
Tested on: NADPH-depending multifunctional oxydase enzyme system of the liver
Protocol: Hexobarbital-induced sleeping time (measurement of enzyme inducing activity)
Assay type: in vivo, CFLP male mice
Condition Details: 40 mg./kg. p.o., 24-hour pretreatment; hexobarbital 60 mg./kg. i.v.; control 34 ± 2.60; x: p < 0.001 compared to the control
Value expressed in min; do not type the unit.

QUERY: Field request: Hexobarbital-sleeping time, 24-hour pretreatment, average ± SE | item: C[C@H]1C(=O)N(C)c2ccc(Cl)cc2[C@H](c2ccccc2)N1C(N)=O
RESULT: 12.0

QUERY: Then this molecule: C[C@@H]1C(=O)N(C)c2ccc(Cl)cc2[C@@H](c2ccccc2)N1C(N)=O [Example 4]
RESULT: 9.9

QUERY: Record: C[C@H]1N[C@H](c2ccccc2)c2cc(Cl)ccc2N(C)C1=O
RESULT: 13.3

QUERY: Another molecule to look at: C[C@@H]1N[C@@H](c2ccccc2)c2cc(Cl)ccc2N(C)C1=O
RESULT: 19.5

QUERY: CCC1(c2ccccc2)C(=O)NC(=O)NC1=O [Phenobarbital, reference compound] , same question.
RESULT: 11.2

QUERY: Now give it for C[C@@H]1C(=O)N(C)c2ccc(Cl)cc2[C@@H](c2ccccc2)N1C(N)=O (relative stereo) [Example 5] too.
RESULT: 9

====

Tested on: CFLP male mice
Protocol: Potentiation of activity of sodium-barbital (measurement of the sedative activity)
Type: in vivo
Condition Details: 20 mg./kg. i.p., after one hour Na-barbital 100 mg./kg. i.p.
Measured Attribute: Number of the test animals fallen asleep in % of the control (%)
# value in %; strip the unit string

QUERY: Given CCC1(c2ccccc2)C(=O)NC(=O)NC1=O [Phenobarbital, reference compound] , state its recorded Number of the test animals fallen asleep in % of the control.
RESULT: 60

QUERY: Another compound to check: C[C@H]1C(=O)N(C)c2ccc(Cl)cc2[C@H](c2ccccc2)N1C(N)=O [Example 3]
RESULT: 0

QUERY: Please give the result for C[C@@H]1N[C@@H](c2ccccc2)c2cc(Cl)ccc2N(C)C1=O [Example 1] too.
RESULT: 50

QUERY: Next compound: C[C@@H]1C(=O)N(C)c2ccc(Cl)cc2[C@@H](c2ccccc2)N1C(N)=O (relative stereo) [Example 5]
RESULT: 20
